src = patent US11420958B2

Target: UniProt:Q9NYK1
Sequence (Q9NYK1 27-1049): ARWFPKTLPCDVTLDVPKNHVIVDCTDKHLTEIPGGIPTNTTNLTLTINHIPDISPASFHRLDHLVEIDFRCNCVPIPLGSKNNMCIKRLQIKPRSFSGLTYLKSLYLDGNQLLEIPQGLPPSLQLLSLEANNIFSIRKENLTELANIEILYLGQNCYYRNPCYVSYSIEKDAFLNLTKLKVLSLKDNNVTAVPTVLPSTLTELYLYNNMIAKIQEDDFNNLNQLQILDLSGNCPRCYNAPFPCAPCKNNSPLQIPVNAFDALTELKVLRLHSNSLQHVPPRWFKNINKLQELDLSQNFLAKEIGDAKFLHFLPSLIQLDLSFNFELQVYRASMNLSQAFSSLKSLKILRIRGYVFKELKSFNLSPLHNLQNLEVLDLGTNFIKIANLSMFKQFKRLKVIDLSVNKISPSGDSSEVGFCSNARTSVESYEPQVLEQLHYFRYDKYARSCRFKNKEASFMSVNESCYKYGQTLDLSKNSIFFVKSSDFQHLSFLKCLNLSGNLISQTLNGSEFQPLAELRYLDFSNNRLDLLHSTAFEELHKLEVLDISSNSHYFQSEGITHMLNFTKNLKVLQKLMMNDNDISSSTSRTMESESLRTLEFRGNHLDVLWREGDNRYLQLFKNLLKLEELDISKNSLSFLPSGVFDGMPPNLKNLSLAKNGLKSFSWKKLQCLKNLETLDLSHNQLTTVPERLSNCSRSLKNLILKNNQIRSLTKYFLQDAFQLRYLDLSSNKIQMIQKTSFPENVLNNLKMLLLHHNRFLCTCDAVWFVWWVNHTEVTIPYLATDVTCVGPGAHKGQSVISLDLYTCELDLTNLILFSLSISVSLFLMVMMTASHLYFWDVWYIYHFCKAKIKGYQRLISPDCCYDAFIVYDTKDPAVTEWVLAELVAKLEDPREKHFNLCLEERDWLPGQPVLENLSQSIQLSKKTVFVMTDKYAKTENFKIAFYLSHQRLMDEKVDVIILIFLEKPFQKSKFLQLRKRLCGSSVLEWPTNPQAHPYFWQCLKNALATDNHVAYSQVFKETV
Protocol summary: TLR7 inhibition reporter assay (HEK-Blue, SEAP)
Conditions used: HEK-Blue cells overexpressing human TLR7, gardiquimod 7.5 μM stimulation
Measured parameter: log10 IC50 (log10 of the value in nM)

| Compound | Measured parameter | Meas value |
| --- | --- | --- |
| CC(C)c1c(-c2ccnc3[nH]ncc23)[nH]c2ccc(-c3nnc(C4CCN(C(=O)CN(C)C)CC4)o3)cc12 | log10 IC50 | 1.93 |
| Cc1cc(-c2[nH]c3ccc(-c4nnc(N)o4)cc3c2C(C)C)cc(C)n1 | log10 IC50 | 1.48 |
| Cc1cc(-c2[nH]c3ccc(-c4cc5c(s4)CN(C(=O)C[C@H](C)O)CC5)cc3c2C(C)C)cc(C)n1 | log10 IC50 | 1.81 |
| COc1ccc(-c2[nH]c3ccc(-c4cnc(N5CCN(CC(C)C)CC5)n4C)cc3c2C(C)C)cc1OC | log10 IC50 | 2.16 |
| COc1ccc(-c2[nH]c3ccc(-c4ccc(N5CCC(c6ccncc6)CC5)cc4)cc3c2C(C)C)cc1OC | log10 IC50 | 3.19 |
| Cc1cc(-c2[nH]c3ccc(-c4nnc(C5CCN(CC(=O)N(C)C)CC5)o4)cc3c2C(C)C)ccn1 | log10 IC50 | 1.99 |
| Cc1cc(-c2[nH]c3ccc(-c4nc(C(=O)NCC5CCCCN5)co4)cc3c2C(C)C)cc(C)n1 (stereo not shown) | log10 IC50 | 1.23 |
| COc1ccc(-c2[nH]c3ccc(-c4nnc(CC(F)(F)F)o4)cc3c2C(C)C)cc1OC | log10 IC50 | 3.02 |
| Cc1cc(-c2[nH]c3ccc(-c4ccnc(C5CCN(C(C)C)CC5)c4)cc3c2C(C)C)ccn1 | log10 IC50 | 1.38 |
| CC(C)c1c(-c2ccnc3[nH]ncc23)[nH]c2ccc(-c3ccc4nccnc4c3)cc12 | log10 IC50 | 2.65 |
| COc1ccc(-c2[nH]c3ccc(-c4nnc(CN5CCNC(=O)C5)o4)cc3c2C(C)C)cc1OC | log10 IC50 | 2.57 |
| CNC(=O)CN1CCC(c2nnc(-c3ccc4[nH]c(-c5ccc(OC)c(OC)c5)c(C(C)C)c4c3)o2)CC1 | log10 IC50 | 2.32 |
| Cc1cc(-c2[nH]c3ccc(-c4ccnc(-c5cn[nH]c5)c4)cc3c2C(C)C)ccn1 | log10 IC50 | 2.35 |
| Cc1cc(-c2[nH]c3ccc(-c4ccc(N)nn4)cc3c2C(C)C)ccn1 | log10 IC50 | 1.76 |
| CCc1c(-c2ccc(OC)c(OC)c2)[nH]c2ccc(-c3noc([C@@H](N)CCCN)n3)cc12 | log10 IC50 | 2.89 |
| COc1ccc(-c2[nH]c3ccc(-c4ccc(N5CCN(C(C)C)CC5)cc4)cc3c2C(C)C)cc1OC | log10 IC50 | 2.20 |
| Cc1cc(-c2[nH]c3ccc(-c4nnc(Cn5ccnc5)o4)cc3c2C(C)C)ccn1 | log10 IC50 | 2.28 |
| COc1ccc(-c2[nH]c3ccc(-c4cccc(N5CCNCC5)c4)cc3c2C(C)C)cc1OC | log10 IC50 | 2.78 |
| Cc1cc(-c2[nH]c3ccc(-c4nnc(CCCN(C)C)o4)cc3c2C(C)C)cc(C)n1 | log10 IC50 | 0.80 |
| COc1ccc(-c2[nH]c3ccc(-c4ccc(OC5CCNCC5)cc4)cc3c2C(C)C)cc1OC | log10 IC50 | 2.44 |
| CC(C)c1c(-c2ccnc(N)c2)[nH]c2ccc(-c3nc(C(=O)NC4CCN(C(C)C)CC4)co3)cc12 | log10 IC50 | 2.08 |
| COc1ccc(-c2[nH]c3ccc(-c4ccnc(N5CCN(Cc6ccsc6)CC5)c4)cc3c2C(C)C)cc1OC | log10 IC50 | 3.15 |
| COc1ccc(-c2[nH]c3ccc(-c4nnc(C5CCN(CC(=O)N(C)C)CC5)o4)cc3c2CC(F)(F)F)cc1OC | log10 IC50 | 2.20 |
| CNCCN1CCC(c2nnc(-c3ccc4[nH]c(-c5ccc(OC)c(OC)c5)c(CC(F)(F)F)c4c3)o2)CC1 | log10 IC50 | 2.39 |
| CC(C)c1c(-c2ccnc3[nH]ncc23)[nH]c2ccc(-c3ccnn3C)cc12 | log10 IC50 | 2.29 |
